Tested on: 926638-142-R-J1-PDC complex spheroid viability
MEASUREMENT DESCRIPTION: Anticancer human tumor 926638-142-R-J1-PDC patient-derived endometrial carcinoma cell line growth inhibition [POLQ]
PARTICULARS: second compound 1 µM; first compound 0.316 µM; stronger effect = lower value
PROPERTY LABEL: viability, T/C

Here is how some compounds turned out for viability, T/C.
COc1cccc2c1C(=O)c1c(O)c3c(c(O)c1C2=O)CC(O)(C(=O)CO)CC3OC1CC(N)C(O)C(C)O1 (stereo not drawn) + Nc1ccc(C#CCN(C(=O)Cc2ncc(C(F)(F)F)cc2C(F)(F)F)c2ccc(F)cc2)nn1: 27.4%
O=C(c1cc(Cc2n[nH]c(=O)c3ccccc23)ccc1F)N1CCN(C(=O)C2CC2)CC1 + Cc1cccc(N(C)C(=O)C2C(O)CCN2c2nc(C)cc(C(F)(F)F)c2C#N)c1: 91.5%

Here's the next entry for you.
Using the record for CC1COCCN1c1cc(-c2ccnn2C)c2ccnc(-c3ccn[nH]3)c2n1 (stereo not drawn) + Nc1ccc(C#CCN(C(=O)Cc2ncc(C(F)(F)F)cc2C(F)(F)F)c2ccc(F)cc2)nn1 , report its viability, T/C. 51.7%

----------
System: 926638-142-R-J1-PDC complex spheroid viability
MEASUREMENT DESCRIPTION: Anticancer human tumor 926638-142-R-J1-PDC cell line growth inhibition [POLQ];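 further: spheroids exposed to drugs for one week before readout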
PARTICULARS: curve of first compound; second compound 0.1 µM
Please provide measured IC50 for the entries that follow.

CC1COCCN1c1cc(C2(S(C)(=N)=O)CC2)nc(-c2ccnc3[nH]ccc23)n1 (stereo not drawn) + Nc1ccc(C#CCN(C(=O)Cc2ncc(C(F)(F)F)cc2C(F)(F)F)c2ccc(F)cc2)nn1: 4.68 µM
O=C(Nc1ccc(O)c(NS(=O)(=O)c2ccc(F)cc2)c1)c1ccc(-c2ccccc2)cc1 + COC1C(OC(N)=O)C(O)C(Oc2ccc3c(O)c(NC(=O)c4ccc(O)c(CC=C(C)C)c4)c(=O)oc3c2C)OC1(C)C: > 10 µM

Let us move to another entry and its IC50.
So what's the measured IC50 for this one? CC(C)n1c(=O)n(C)c2cnc3cc(F)c(-c4ccc(OCCCN5CCCCC5)nc4)cc3c21 + Nc1ccc(C#CCN(C(=O)Cc2ncc(C(F)(F)F)cc2C(F)(F)F)c2ccc(F)cc2)nn1 > 10 µM

----------
Tested on: 926638-142-R-J1-PDC complex spheroid viability
MEASUREMENT DESCRIPTION: Anticancer human tumor 926638-142-R-J1-PDC cell line growth inhibition [POLQ];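 further: spheroids exposed to drugs for one week before readout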;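 on viability, T/C: percent viability relative to DMSO vehicle control wells set as 100%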
PARTICULARS: second compound 0.1 µM; first compound 3.16 µM; stronger effect = lower value
Friendly reminder: viability, T/C below 90% is Fulfilled, at or above is Not fulfilled.

Observe how each entry below is paired with its result.
O=C(Nc1ccc(O)c(NS(=O)(=O)c2ccc(F)cc2)c1)c1ccc(-c2ccccc2)cc1 + Nc1ccc(C#CCN(C(=O)Cc2ncc(C(F)(F)F)cc2C(F)(F)F)c2ccc(F)cc2)nn1: Not fulfilled
COc1ccc([C@@H](O)c2cc(-c3ncnc4cc(N5CCOCC5)ccc34)c(F)cc2Cl)nn1 + Cc1cccc(N(C)C(=O)C2C(O)CCN2c2nc(C)cc(C(F)(F)F)c2C#N)c1: Fulfilled
CCCS(=O)(=O)Nc1ccc(F)c(C(=O)c2c[nH]c3ncc(-c4ccc(Cl)cc4)cc23)c1F + Nc1ccc(C#CCN(C(=O)Cc2ncc(C(F)(F)F)cc2C(F)(F)F)c2ccc(F)cc2)nn1: Not fulfilled

Consider now this further molecule.
Strictly below 90%: is that where viability, T/C of Nc1ccn(C2OC(CO)C(O)C2(F)F)c(=O)n1 (stereo not given) + COC1C(OC(N)=O)C(O)C(Oc2ccc3c(O)c(NC(=O)c4ccc(O)c(CC=C(C)C)c4)c(=O)oc3c2C)OC1(C)C sits? Fulfilled

----------
Test system: 926638-142-R-J1-PDC complex spheroid viability
MEASUREMENT DESCRIPTION: Anticancer human tumor 926638-142-R-J1-PDC cell line growth inhibition [POLQ];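 further: spheroids exposed to drugs for one week before readout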;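 on viability, T/C: percent viability relative to DMSO vehicle control wells set as 100%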
PARTICULARS: second compound 0.1 µM; first compound 3.16 µM; stronger effect = lower value
Description: Multicellular complex tumor spheroid response to Polymerase (POL) inhibitors (novobiocin, ART-558, RP6685) in combination with a variety of drugs and investigational agents in selected tumor cell lines The POL inhibitors (novobiocin, ART-558, and RP6685) were evaluated both individually and in combination with standard of care and investigational anticancer small molecules within a complex spheroid model of solid tumors. . […]
PROPERTY LABEL: viability, T/C (%)
One number for each entry, in %.

Some solved entries appear below for comparison.
O=C(Nc1ccc(O)c(NS(=O)(=O)c2ccc(F)cc2)c1)c1ccc(-c2ccccc2)cc1 + COC1C(OC(N)=O)C(O)C(Oc2ccc3c(O)c(NC(=O)c4ccc(O)c(CC=C(C)C)c4)c(=O)oc3c2C)OC1(C)C: 94.8
COc1ccc([C@@H](O)c2cc(-c3ncnc4cc(N5CCOCC5)ccc34)c(F)cc2Cl)nn1 + COC1C(OC(N)=O)C(O)C(Oc2ccc3c(O)c(NC(=O)c4ccc(O)c(CC=C(C)C)c4)c(=O)oc3c2C)OC1(C)C: 12.6
C#Cc1c(F)ccc2cc(O)cc(-c3ncc4c(N5CC6CCC(C5)N6)nc(OCC56CCCN5CC(F)C6)nc4c3F)c12 (stereo not given) + Cc1cccc(N(C)C(=O)C2C(O)CCN2c2nc(C)cc(C(F)(F)F)c2C#N)c1: 60.5

Required: viability, T/C, one value per compound below.
1. COc1cc(C2c3cc4c(cc3C(OC3OC5COC(C)OC5C(O)C3O)C3COC(=O)C23)OCO4)cc(OC)c1O (stereo not given) + Cc1cccc(N(C)C(=O)C2C(O)CCN2c2nc(C)cc(C(F)(F)F)c2C#N)c1
2. CC1COCCN1c1cc(C2(S(C)(=N)=O)CC2)nc(-c2ccnc3[nH]ccc23)n1 (stereo not given) + COC1C(OC(N)=O)C(O)C(Oc2ccc3c(O)c(NC(=O)c4ccc(O)c(CC=C(C)C)c4)c(=O)oc3c2C)OC1(C)C

1: 67.7; 2: 71

----------
System: 926638-142-R-J1-PDC complex spheroid viability
MEASUREMENT DESCRIPTION: Anticancer human tumor 926638-142-R-J1-PDC cell line growth inhibition [POLQ];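 further: spheroids exposed to drugs for one week before readout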;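 on viability, T/C: percent viability relative to DMSO vehicle control wells set as 100%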
PARTICULARS: second compound 3.16 µM; first compound 0.1 µM; stronger effect = lower value
For each of the molecules below, state its viability, T/C.
Give bare numbers, in %.

Some molecules with known viability, T/C results, for comparison:
CCc1cc2c(N3CCc4c(cc(Cn5ccnc5)cc4-c4cn(C)nc4C(F)(F)F)C3=O)ccnc2c(OC)n1 + Nc1ccc(C#CCN(C(=O)Cc2ncc(C(F)(F)F)cc2C(F)(F)F)c2ccc(F)cc2)nn1: 70.5
C=CCn1c(=O)c2cnc(Nc3ccc(N4CCN(C)CC4)cc3)nc2n1-c1cccc(C(C)(C)O)n1 + Cc1cccc(N(C)C(=O)C2C(O)CCN2c2nc(C)cc(C(F)(F)F)c2C#N)c1: 78.8
CCc1cc2c(N3CCc4c(cc(Cn5ccnc5)cc4-c4cn(C)nc4C(F)(F)F)C3=O)cc(C)nc2c(OC)n1 + Cc1cccc(N(C)C(=O)C2C(O)CCN2c2nc(C)cc(C(F)(F)F)c2C#N)c1: 66.2
CC1COCCN1c1cc(C2(S(C)(=N)=O)CC2)nc(-c2ccnc3[nH]ccc23)n1 (stereo not given) + Cc1cccc(N(C)C(=O)C2C(O)CCN2c2nc(C)cc(C(F)(F)F)c2C#N)c1: 117

Batch request: viability, T/C per item, same order as input.
1. CC[C@@]1(O)C(=O)OCc2c1cc1n(c2=O)Cc2cc3c(CN(C)C)c(O)ccc3nc2-1 + Nc1ccc(C#CCN(C(=O)Cc2ncc(C(F)(F)F)cc2C(F)(F)F)c2ccc(F)cc2)nn1
2. CCc1c2c(nc3ccc(O)cc13)-c1cc3c(c(=O)n1C2)COC(=O)[C@]3(O)CC + COC1C(OC(N)=O)C(O)C(Oc2ccc3c(O)c(NC(=O)c4ccc(O)c(CC=C(C)C)c4)c(=O)oc3c2C)OC1(C)C
3. COc1cc2cc(C(=O)CCC(=O)O)sc2cc1OC + Nc1ccc(C#CCN(C(=O)Cc2ncc(C(F)(F)F)cc2C(F)(F)F)c2ccc(F)cc2)nn1
4. Cn1ncnc1[C@H]1c2n[nH]c(=O)c3cc(F)cc(c23)N[C@@H]1c1ccc(F)cc1 + COC1C(OC(N)=O)C(O)C(Oc2ccc3c(O)c(NC(=O)c4ccc(O)c(CC=C(C)C)c4)c(=O)oc3c2C)OC1(C)C
5. C=CC(=O)N1CCN(c2nc(=O)n(-c3c(C)ccnc3C(C)C)c3nc(-c4c(O)cccc4F)c(F)cc23)C(C)C1 (stereo not given) + Nc1ccc(C#CCN(C(=O)Cc2ncc(C(F)(F)F)cc2C(F)(F)F)c2ccc(F)cc2)nn1
6. CC(C)n1c(=O)n(C)c2cnc3cc(F)c(-c4ccc(OCCCN5CCCCC5)nc4)cc3c21 + COC1C(OC(N)=O)C(O)C(Oc2ccc3c(O)c(NC(=O)c4ccc(O)c(CC=C(C)C)c4)c(=O)oc3c2C)OC1(C)C

[48.1, 17.7, 93.9, 69.6, 99.7, 107]
